# Tested on: isolated rat bladder strips (smooth muscle)
# PROCEDURE_DETAILS: Inhibition of contractions in isolated rat bladder strips
# Set-up: species or system Sprague-Dawley rat
# RUN_PARAMETERS: 0.5 h, 15 mM KCl-enhanced contractions, 30 minute challenge, ± spread
pIC50: −log10 of the molar value.
Documented pIC50 across a set of compounds
REPORTED_ENDPOINT: pIC50

In [3]: df
Out[3]:
                               input_smiles  reported_endpoint  meas_value
0  C[C@@H](Nc1c(NCc2ccc(C(F)(F)F)cc2)c(=O)c1=O)C(C)(C)C              pIC50        5.19
1  CC(C)(C)Nc1c(NCc2ccccc2C(F)(F)F)c(=O)c1=O              pIC50        5.64
2      CC(C)(C)Nc1c(NCc2cccc(F)c2)c(=O)c1=O              pIC50        5.62
3        CC(C)(C)Nc1c(NCc2ccccc2F)c(=O)c1=O              pIC50        5.68
4  CC(C)(C)Nc1c(NCc2cccc(C(F)(F)F)c2)c(=O)c1=O              pIC50        5.10
5     CCC(C)(C)Nc1c(NCc2ccc(F)cc2)c(=O)c1=O              pIC50        6.44
6  C[C@@H](Nc1c(NCc2ccccc2F)c(=O)c1=O)C(C)(C)C              pIC50        5.91
